method.notes: Oral bioavailability studies in dogs (AUC after oral vs. intravenous dose)
Parameters: species or system dog (beagle dogs, mixed sexes)
particulars: dog, in vivo, 5 mg/kg
measured.parameter: bioavailability

Input: Annotate the compound CC(C)c1nc(CN(C)C(=O)N[C@H](C(=O)N[C@@H](Cc2ccccc2)C[C@H](O)[C@H](Cc2ccccc2)NC(=O)OCc2cncs2)C(C)C)cs1 with its measured bioavailability.
Output: < 2%

This collection of values is drawn from patent US5948436A.
